Experiment: Half-life in SCID mouse model infected with plasmodium falciparum 3D7 at 50 mg/kg/day, po administered for 4 days
Assay type: ADME, organism-based
Conditions: in vivo, time 4 day
ASSAY ENDPOINT: half-life (h)

COMPOUND STRUCTURE STRING: CCCNc1ccc(C(=O)/C=C(\O)C(F)(F)C(F)(F)F)cn1
RESULT: 2

* * *

System: Plasmodium falciparum
Experiment: Antiplasmodial activity against Plasmodium falciparum 3D7 infected in erythrocytes incubated for 48 hrs with media replenishment with compound after 24 hrs by LSR II FACS analysis
Assay type: functional, organism-based
Conditions: 3D7, Erythrocyte

COMPOUND STRUCTURE STRING: CC(=O)Nc1ccc(C(=O)/C=C(\O)C(F)(F)C(F)(F)F)cn1
EC50: < 100 nM
//
COMPOUND STRUCTURE STRING: O=C(/C=C(\O)C(F)(F)C(F)(F)F)c1ccc(NCc2ccccc2)nc1
EC50: < 100 nM

* * *

Test: Metabolic stability in pooled human liver microsomes assessed as intrinsic clearance at 1 uM by LC-MS/MS analysis
Type: ADME, Microsome
Conditions: read-out: CLH
ASSAY ENDPOINT: CLint scaled at 1 µM (mL/min/kg)

COMPOUND STRUCTURE STRING: CC(=O)Nc1ccc(C(=O)/C=C(\O)C(F)(F)C(F)(F)F)cn1
RESULT: 10.6

COMPOUND STRUCTURE STRING: O=C(/C=C(\O)C(F)(F)C(F)(F)F)c1cccnc1
RESULT: 3.98

COMPOUND STRUCTURE STRING: CCCNc1ccc(C(=O)/C=C(\O)C(F)(F)C(F)(F)F)cn1
RESULT: 462

* * *

Experiment: Binding affinity to C-terminal GFP tagged Plasmodium falciparum FNT extracted from HEK293 cell membrane assessed as inhibition constant measured 10 times for 5 sec in presence of BH267.meta-DY647 tracer by fluorescence cross-correlation spectroscopic analysis
Assay type: cell membranes
pKi: −log10 of the molar value.
ASSAY ENDPOINT: pKi

COMPOUND STRUCTURE STRING: COc1ccc(C(=O)/C=C(\O)C(F)(F)C(F)(F)F)c(O)c1
ASSAY ENDPOINT: pKi
RESULT: 7.08
